- ASSAYED_SYSTEM: Sulfhydryl oxidase 1 (Homo sapiens)
- ASSAY_TEXT: inhibition of human sulfhydryl oxidase QSOX1 – biochemical, ROS-Glo H2O2 luminescence, HTS, primary screen (AID 1347418)
- CONDITIONS: recombinant QSOX1, ROS-Glo H2O2 luminescence, at 12.5 µM, active compounds read high; active = any value above zero unless noted
Among all 1,300 compounds or so, about 750 (58%) were called active. This is one part of the list.
Respond with a class label; see 1.0 = active, 0.0 = inactive

Enquiry: What did this assay record as the result for `CCCn1c(=O)c2[nH]c(C3CCCC3)nc2n(CCCOC(=O)c2ccc(S(=O)(=O)F)cc2)c1=O` ?
Return: 0.0

Enquiry: What did this assay record as the result for `O=C(O)[C@@H]1CCN1` ?
Return: 1.0

Enquiry: What did this assay record as the result for `Cc1cccc(C)c1NC1=NCCCS1` ?
Return: 1.0

Enquiry: What did this assay record as the result for Ic1ccccc1CNC1C2CCN(CC2)C1C(c1ccccc1)c1ccccc1 (configuration not stated) ?
Return: 0.0

Enquiry: What did this assay record as the result for CC(Cc1ccc(O)cc1)NCC(O)c1cc(O)cc(O)c1 (configuration not stated) ?
Return: 1.0

Enquiry: What did this assay record as the result for `CN[C@@H]1C[C@@H](c2ccc(Cl)c(Cl)c2)c2ccccc21` ?
Return: 0.0

Enquiry: What did this assay record as the result for O=C1NCN(c2ccccc2)C12CCN(CC1COc3ccccc3O1)CC2 (configuration not stated) ?
Return: 0.0

Enquiry: What did this assay record as the result for CC(Cc1ccc(OCC(=O)O)cc1)NCC(O)c1cccc(Cl)c1 (configuration not stated) ?
Return: 0.0

Enquiry: What did this assay record as the result for NCC(O)c1cc(O)c(O)cc1F (configuration not stated) ?
Return: 1.0

Enquiry: What did this assay record as the result for `CC(=O)[C@H]1CC[C@H]2[C@@H]3CC[C@H]4C[C@H](O)CC[C@]4(C)[C@H]3C(=O)C[C@]12C` ?
Return: 0.0

Enquiry: What did this assay record as the result for CN1C2CCC1CC(OC(=O)c1cc(Cl)cc(Cl)c1)C2 (configuration not stated) ?
Return: 0.0

Enquiry: What did this assay record as the result for COc1cc(CC(C)N)c(OC)cc1I (configuration not stated) ?
Return: 1.0

---

- ASSAYED_SYSTEM: Sulfhydryl oxidase 1 (Homo sapiens)
- ASSAY_TEXT: inhibition of human sulfhydryl oxidase QSOX1 – biochemical, ROS-Glo H2O2 luminescence, HTS, primary screen (AID 1347418)
- CONDITIONS: recombinant QSOX1, ROS-Glo H2O2 luminescence, at 12.5 µM, active compounds read high; active = any value above zero unless noted
Hit rate of the full screen: of about 1,300 compounds, about 750 (58%) were called active. Some of the results follow.
Consider the following molecules; for each one, report its inhibition.

Enquiry: Would you mind telling me what inhibition value was observed for Oc1ccc2c3c1O[C@H]1c4oc5ccccc5c4C[C@@]4(O)C(C2)N(CC2CC2)CCC314 (stereo partly drawn) ?
Return: 1.7% [setting not given] (active)

Enquiry: Would you mind telling me what inhibition value was observed for `O=C1/C(=C/c2ccccc2)C[C@@]2(O)[C@H]3Cc4ccc(O)c5c4[C@@]2(CCN3CC2CC2)[C@H]1O5` ?
Return: -0.8% [setting not given] (inactive)

Enquiry: Would you mind telling me what inhibition value was observed for CC(C)NC(C)Cc1ccc(I)cc1 (stereo not drawn) ?
Return: 5.2% [setting not given] (active)

Enquiry: Would you mind telling me what inhibition value was observed for COc1ccc2c(c1)C13CCCCC1C(C2)N(C)CC3 (stereo not drawn) ?
Return: -2.3% [setting not given] (inactive)

Enquiry: Would you mind telling me what inhibition value was observed for `CC(=O)[C@H]1CC[C@H]2[C@@H]3CC[C@H]4C[C@](C)(O)CC[C@]4(C)[C@H]3CC[C@]12C` ?
Return: 0.1% [setting not given] (active)

Enquiry: Would you mind telling me what inhibition value was observed for `c1ccc2sc(C3(N4CCCCC4)CCCCC3)cc2c1` ?
Return: 0.2% (active)

Enquiry: Would you mind telling me what inhibition value was observed for C[C@]12CCC3C(CC[C@H]4C[C@H](O)CC[C@]34C)C1CC[C@@H]2C(=O)CO (stereo partly drawn) ?
Return: -1.5% (inactive)

Enquiry: Would you mind telling me what inhibition value was observed for `CCCN1CCc2cccc3c2[C@H]1Cc1ccc(O)c(O)c1-3` ?
Return: 25.2% (active)

Enquiry: Would you mind telling me what inhibition value was observed for `CCn1cnc2c(Nc3cccc(Cl)c3)nc(N[C@@H]3CCCC[C@@H]3N)nc21` ?
Return: 0.3% (active)

Enquiry: Would you mind telling me what inhibition value was observed for `Oc1ccc2c3c1O[C@H]1c4[nH]c5c(c4C[C@@]4(O)[C@@H](C2)N(CC2CC2)CC[C@]314)C[C@@]1(O)[C@H]2Cc3ccc(O)c4c3[C@@]1(CCN2CC1CC1)[C@H]5O4` ?
Return: 0.3% (active)

Enquiry: Would you mind telling me what inhibition value was observed for Oc1ccc2c3c1O[C@H]1c4[nH]c5ccccc5c4C[C@@]4(O)C(C2)N(CC2CC2)CCC314 (stereo partly drawn) ?
Return: 8.5% [setting not given] (active)

Enquiry: Would you mind telling me what inhibition value was observed for `O=C(O)c1nn(Cc2ccc(Cl)cc2Cl)c2ccccc12` ?
Return: 6.3% [setting not given] (active)

Enquiry: Would you mind telling me what inhibition value was observed for `COc1ccc2c(c1O)-c1cccc3c1[C@@H](C2)N(C)CC3` ?
Return: 3.5% (active)
